# assay comment: Oral pharmacokinetics of carbamazepine and carbamazepine 10,11-epoxide with and without BM pre-treatment
# Format: in vivo, male Sprague-Dawley rat
# settings: male, Sprague-Dawley, rat, in vivo, po, 50 mg/kg, vehicle pretreated rats; carbamazepine 50 mg/kg oral; Mean ± SD; read-out: CL/F (converted)
quantity name: CL/F (mL/min/kg)
Answer in mL/min/kg, number only, no unit symbol.

Record NC(=O)N1c2ccccc2C=Cc2ccccc21 [CBZ, carbamazepine] . Reported CL/F: 20.8

* * *

# assay comment: Oral pharmacokinetics of digoxin with and without BM pre-treatment
# Assay type: in vivo, male Sprague-Dawley rat
# settings: male, Sprague-Dawley, rat, plasma, po, 0.2 mg/kg, BM pretreated rats (31 mg/kg/day 7 days); digoxin 0.2 mg/kg oral
quantity name: MRT (h)
Please reply with the bare figure in h and do not write the unit itself.

Value of MRT reported for the molecule C[C@H]1O[C@@H](O[C@H]2[C@@H](O)C[C@H](O[C@H]3[C@@H](O)C[C@H](O[C@H]4CC[C@@]5(C)[C@H](CC[C@@H]6[C@@H]5C[C@@H](O)[C@]5(C)[C@@H](C7=CC(=O)OC7)CC[C@]65O)C4)O[C@@H]3C)O[C@@H]2C)C[C@H](O)[C@@H]1O [Digoxin, digoxin] is 8.88

* * *

# assay comment: Oral pharmacokinetics of carbamazepine and carbamazepine 10,11-epoxide with and without BM pre-treatment
# Assay type: in vivo, male Sprague-Dawley rat
# settings: male, Sprague-Dawley, rat, plasma, po, 50 mg/kg, vehicle pretreated rats; carbamazepine 50 mg/kg oral; Mean ± SD; read-out: MRT
quantity name: MRT (h)
Write it as a number; the unit h goes unstated.

The recorded MRT for NC(=O)N1c2ccccc2C=Cc2ccccc21 [CBZ, carbamazepine] is 5.46

* * *

# assay comment: Oral pharmacokinetics of digoxin with and without BM pre-treatment
# Format: in vivo, male Sprague-Dawley rat
# settings: male, Sprague-Dawley, rat, plasma, po, 0.2 mg/kg, vehicle pretreated rats; digoxin 0.2 mg/kg oral
# Source text: Rats were divided in two groups (total 40 rats; 10 rats each group) for both probe drugs viz. control and BM pre-treated group. Pharmacokinetic parameters of probe drugs in plasma were derived from plasma concentration-time profile of probe drugs by Non-Compartmental analysis using WinNonlin Ver 5.1 (Pharsight Corporation, Mountain Veiw, CA).
quantity name: Vd/F (L/kg)
// note: answer is a bare numeric in L/kg

The reported Vd/F of the compound C[C@H]1O[C@@H](O[C@H]2[C@@H](O)C[C@H](O[C@H]3[C@@H](O)C[C@H](O[C@H]4CC[C@@]5(C)[C@H](CC[C@@H]6[C@@H]5C[C@@H](O)[C@]5(C)[C@@H](C7=CC(=O)OC7)CC[C@]65O)C4)O[C@@H]3C)O[C@@H]2C)C[C@H](O)[C@@H]1O [Digoxin, digoxin] was 0.0208

* * *

# assay comment: Oral pharmacokinetics of carbamazepine and carbamazepine 10,11-epoxide with and without BM pre-treatment
# Type: in vivo, male Sprague-Dawley rat
# settings: male, Sprague-Dawley, rat, in vivo, po, 50 mg/kg, BM pretreated rats (31 mg/kg/day 7 days); carbamazepine 50 mg/kg oral; Mean ± SD; read-out: CL/F (converted)
quantity name: CL/F (mL/min/kg)
# unit: mL/min/kg | format: bare number

Quick note, CL/F for NC(=O)N1c2ccccc2C=Cc2ccccc21 [CBZ, carbamazepine] landed at 5.38
